biological target: Human D1 Receptor (Homo sapiens (Human), UniProt P21728); assay: Human D1 receptor binding assay ([3H]-SCH23390 competition binding); details: read-out: Human D1 Receptor Binding, Ki (nM); Geometric mean of 2-4 determinations (unless otherwise indicated); over-expressing LTK human cell lines; 0.5 nM [3H]-SCH23390; 30 min at 37° C.; footnote a = single determination, b = geometric mean of ≧5 determinations
Sequence (P21728 whole entry): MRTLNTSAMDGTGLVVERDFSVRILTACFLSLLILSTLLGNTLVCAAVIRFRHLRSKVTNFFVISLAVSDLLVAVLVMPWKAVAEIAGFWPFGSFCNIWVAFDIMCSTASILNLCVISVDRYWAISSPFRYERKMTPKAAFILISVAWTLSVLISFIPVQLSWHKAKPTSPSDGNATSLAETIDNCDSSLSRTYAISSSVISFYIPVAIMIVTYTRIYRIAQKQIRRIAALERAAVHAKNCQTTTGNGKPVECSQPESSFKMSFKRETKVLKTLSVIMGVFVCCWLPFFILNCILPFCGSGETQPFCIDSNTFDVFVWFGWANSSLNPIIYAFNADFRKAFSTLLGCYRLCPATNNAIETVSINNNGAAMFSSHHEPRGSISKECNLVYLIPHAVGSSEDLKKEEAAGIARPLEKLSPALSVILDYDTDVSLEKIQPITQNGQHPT
// boundary case: Ki equal to 80 nM maps to Condition not met; strictly smaller maps to Condition met

Solved entries:
[
  {
    "molecule": "Cc1ncnc(C)c1-c1cc(F)c(Oc2ncnn3cccc23)cc1F [Example 29]",
    "cat": "Condition not met"
  },
  {
    "molecule": "Cc1ncnc(C)c1-c1ccc(Oc2ncnn3cccc23)c(F)c1 [Example 33]",
    "cat": "Condition not met"
  },
  {
    "molecule": "Cc1cc(Oc2ncnn3cccc23)ccc1-c1c(C)ncnc1C [Example 5]",
    "cat": "Condition met"
  },
  {
    "molecule": "Cc1cc(Oc2ncnn3cccc23)ccc1-c1c(C)cnnc1C [Example 9]",
    "cat": "Condition met"
  }
]

Q: Please determine if COc1cc(Oc2nccn3cccc23)ccc1-c1cccnc1C [Example 25] is below 80 nM in terms of Ki.
Result: Condition met

Q: Please determine if Cc1ncnc(C)c1-c1ccc(Oc2nccn3cccc23)cc1Cl [Example 37] is below 80 nM in terms of Ki.
Result: Condition met

Q: Please determine if Cc1ncnc(C)c1-c1ccc(Oc2nccn3nccc23)cc1 [Example 7] is below 80 nM in terms of Ki.
Result: Condition not met

Q: Please determine if Cc1ncnc(C)c1-c1cc(F)c(Oc2nccn3cccc23)cc1F [Example 26] is below 80 nM in terms of Ki.
Result: Condition not met

Q: Please determine if COc1cc(Oc2ncnn3cccc23)ccc1-c1cccnc1C [Example 24] is below 80 nM in terms of Ki.
Result: Condition not met

Q: Please determine if Cc1ncnc(C)c1-c1ccc(Oc2nccn3cccc23)cc1F [Example 20] is below 80 nM in terms of Ki.
Result: Condition met

----------
Target: Human D1 Receptor (Homo sapiens (Human), UniProt P21728)
Experiment: Human D1 receptor binding assay ([3H]-SCH23390 competition binding)
Settings: read-out: Human D1 Receptor Binding, Ki (nM); Geometric mean of 2-4 determinations (unless otherwise indicated); over-expressing LTK human cell lines; 0.5 nM [3H]-SCH23390; 30 min at 37° C.; footnote a = single determination, b = geometric mean of ≧5 determinations
Description: D1 binding assays were performed using over-expressing LTK human cell lines. […] These ligand and tissue concentrations were used in time course studies to determine linearity and equilibrium conditions for binding. […] The pellet was resuspended in assay buffer [50 mM Tris (pH 7.4@ RT) containing 4 mM MgSO4 and 0.5 mM EDTA]. […] Ki values were calculated according to the Cheng-Prusoff equation: […]
// boundary case: Ki equal to 100 nM maps to No; strictly smaller maps to Yes

Solved entries:
[
  {
    "smiles": "COc1cc(Oc2nccn3nccc23)ccc1-c1c(C)ncnc1C",
    "target_entity": "Human D1 Receptor (Homo sapiens (Human), UniProt P21728)",
    "cat": "No"
  },
  {
    "smiles": "Cc1ncnc(C)c1-c1ccc(Oc2nccn3cccc23)c(F)c1",
    "target_entity": "Human D1 Receptor (Homo sapiens (Human), UniProt P21728)",
    "cat": "Yes"
  },
  {
    "smiles": "Cc1cc(Oc2nccn3nccc23)ccc1-c1c(C)ncc2nccn12",
    "target_entity": "Human D1 Receptor (Homo sapiens (Human), UniProt P21728)",
    "cat": "No"
  }
]

# evaluate next
Q: Please determine if `Cc1cc(Oc2nccn3cccc23)ccc1-c1c(C)ncnc1C` is below 100 nM in terms of Ki.
Result: Yes

Origin of the recorded values: patent US9856263B2
